B1: SNAP91 (parent)
chain: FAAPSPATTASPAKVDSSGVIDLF

# Variants of: B1
# ASSAY_COMMENT: protein stability index of a GFP-peptide fusion (GPS, HEK-293T) (PSI 1-6); higher = more stable;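 also: lentivirally expressed fusions sorted by FACS into six bins by GFP to DsRed ratio, PSI derived from sequencing read proportions per bin multiplied by bin number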
# EXPERIMENTAL_CONTEXT: c terminus: a fixed tail appended
Give measured protein stability index for each item. Keep answers brief.
Lab note: write the figure by itself, no unit.

Value of protein stability index reported for the variant FAAPSPATTASPAKVDSPGVIDLF [S18P] is 2.83

Per the records, this variant ( FAAPSPAGTASPAKVDSSGVIDLF [T8G] ) has protein stability index equal to 2.3

Data point: FAAPSPATTASPALVDSSGVIDLF [K14L] ; protein stability index = 2.28

The variant listed as FAAPSPATTASPAKWDSSGVIDLF [V15W] has a reported protein stability index of 2.1

Per the records, this variant ( FAAPSPATTASRAKVDSSGVIDLF [P12R] ) has protein stability index equal to 2.2

The variant listed as FAAPSPATTASPAKVDSSGKIDLF [V20K] shows protein stability index equal to 2.78

variant FAAPSPGTTASPAKVDSSGVIDLF [A7G] , protein stability index observed: 2.85

Notebook: FAAPSPATTASPAKVDSSGVNDLF [I21N] , protein stability index read as 4.12

Reported protein stability index ( FAAPSPATTASVAKVDSSGVIDLF [P12V] ) = 2.09

Consider FAAPSPATTASPAKVDSNGVIDLF [S18N] . Its measured protein stability index is 2.43

For record FAAPSPATTASPAKVDSSGVIDLQ [F24Q] the listed protein stability index is 3.85

Item: FAAPSPATTASPAKVDSSSVIDLF [G19S] | protein stability index: 2.58

// sample FAAPSPATTASQAKVDSSGVIDLF [P12Q] , its protein stability index was 2.6

Form field protein stability index, entry FAAPSPATTASPAKVDSSGVIGLF [D22G] : 1.75

protein stability index reported for this variant FAAPSPATTASPAKVDSSGVIDCF [L23C] : 2.79

Lab note: measured protein stability index of SAAPSPATTASPAKVDSSGVIDLF [F1S] was 3.56

Note to self: protein stability index recorded for FAAPSPAYTASPAKVDSSGVIDLF [T8Y] was 1.94

// protein stability index value for FAAPSPATTASPAKVDSSGVIELF [D22E] : 2.46

// protein stability index value for FAAPSPATTASPAKVDSSGVIDGF [L23G] : 3.51

Entry EAAPSPATTASPAKVDSSGVIDLF [F1E] ; protein stability index = 4.39

Briefly, protein stability index measured for FSAPSPATTASPAKVDSSGVIDLF [A2S] : 2.97

The value of protein stability index measured for the variant FAAPSPATTASPAKVDHSGVIDLF [S17H] turned out to be 2.71

# protein stability index of FAAPSCATTASPAKVDSSGVIDLF [P6C] = 2.32

Please fill in: protein stability index reported for FAAPSPATTASPAKVDSSGVIDLK [F24K] = 4.2

protein stability index in this record for FAAPSPATTASPAKVDSSGGIDLF [V20G] : 2.77

Note to self: protein stability index recorded for FAAPSPATTASPAKVDSSGVISLF [D22S] was 1.76

For this variant ( FAAPSPATIASPAKVDSSGVIDLF [T9I] ), measured protein stability index is 2.16

Given item FAAPSPAWTASPAKVDSSGVIDLF [T8W] , the value recorded as its protein stability index is 2.33

Per the records, this variant ( AAAPSPATTASPAKVDSSGVIDLF [F1A] ) has protein stability index equal to 3.95

Reported protein stability index ( FAAPLPATTASPAKVDSSGVIDLF [S5L] ) = 2.81

Lab book: protein stability index of FAAPSPATTASPAKVDSSRVIDLF [G19R] noted as 2.44

FAAPSPATTASPAKHDSSGVIDLF [V15H] has a reported protein stability index of 2.32

Briefly, protein stability index measured for FAAPSPATTNSPAKVDSSGVIDLF [A10N] : 2.59

Form field protein stability index, entry FAAPSPATTASPAKVDSSGVIDFF [L23F] : 2.29

Lab note: measured protein stability index of FAHPSPATTASPAKVDSSGVIDLF [A3H] was 2.23

Record summary for FAAPSPATTASPMKVDSSGVIDLF [A13M] : reported protein stability index = 2.31

Quick note, protein stability index for FAAPSPATTASPAKVDSSGVIYLF [D22Y] landed at 2.04

For FWAPSPATTASPAKVDSSGVIDLF [A2W] the variant record lists protein stability index as 1.99

Lab book: protein stability index of FAAPSPATTASPAKVDSSGVLDLF [I21L] noted as 2.65

For FAANSPATTASPAKVDSSGVIDLF [P4N] the variant record lists protein stability index as 2.43

Just so you know, measured protein stability index for FAAPSPATTASPGKVDSSGVIDLF [A13G] came out at 1.98

Sample YAAPSPATTASPAKVDSSGVIDLF [F1Y] ; protein stability index observed: 2.3

The recorded protein stability index for entry FAAPSPATTASPAKVDSSGVIDHF [L23H] equals 4.27

FAAPSPATTASPNKVDSSGVIDLF [A13N] yielded protein stability index of 2.38

Lookup result for FAAPSPSTTASPAKVDSSGVIDLF [A7S] ; measured protein stability index: 2.49

variant FAAPSPATTASPAKVDSTGVIDLF [S18T] , protein stability index observed: 2.49

Entry FAAPSPATTAFPAKVDSSGVIDLF [S11F] ; protein stability index = 1.96

The variant FAAPSPATTAAPAKVDSSGVIDLF [S11A] showed protein stability index equal to 2.47

Please fill in: protein stability index reported for FAAPSWATTASPAKVDSSGVIDLF [P6W] = 2.35

protein stability index reported for this variant FAAPSPYTTASPAKVDSSGVIDLF [A7Y] : 2.54

The reported value for FAAPSPATTASWAKVDSSGVIDLF [P12W] in terms of protein stability index is 2.04

FAAPSPATQASPAKVDSSGVIDLF [T9Q] yielded protein stability index of 2.46

Value of measured protein stability index for the entry FAAPSPATTASPAKVDSSGVIDLW [F24W] : 1.22

So, FAAPSPATTASPAKVDSWGVIDLF [S18W] ? Its protein stability index was 1.37

For FAAPSPATTASPAKVDSSGVIDTF [L23T] the variant record lists protein stability index as 3.74

Entry FAAPSPAVTASPAKVDSSGVIDLF [T8V] — recorded protein stability index = 2.85

The recorded protein stability index for FDAPSPATTASPAKVDSSGVIDLF [A2D] is 3.57

protein stability index recorded for this variant, FAAPSPATTASLAKVDSSGVIDLF [P12L] , is 2.49

// protein stability index value for FAAPSAATTASPAKVDSSGVIDLF [P6A] : 2.18

# protein stability index of FAAPSPASTASPAKVDSSGVIDLF [T8S] = 2.52

For record FAAPSPATTASPIKVDSSGVIDLF [A13I] the listed protein stability index is 1.92

For record FAAPVPATTASPAKVDSSGVIDLF [S5V] the listed protein stability index is 2.64

// recorded protein stability index for FAAPSPATEASPAKVDSSGVIDLF [T9E] : 2.77

The value of protein stability index measured for the variant FANPSPATTASPAKVDSSGVIDLF [A3N] turned out to be 1.86

The reported protein stability index of the variant FAAPSPITTASPAKVDSSGVIDLF [A7I] was 2.1

The reported protein stability index of the variant FAAPSPADTASPAKVDSSGVIDLF [T8D] was 2.65

# protein stability index of FADPSPATTASPAKVDSSGVIDLF [A3D] = 2.29

Entry FALPSPATTASPAKVDSSGVIDLF [A3L] ; protein stability index = 2.33

Consider FAVPSPATTASPAKVDSSGVIDLF [A3V] . Its measured protein stability index is 2.46

Field protein stability index (entry FAAPSPDTTASPAKVDSSGVIDLF [A7D] ) reads 2.25

Reported protein stability index of FAAPSPATTCSPAKVDSSGVIDLF [A10C] : 1.94

The variant listed as FIAPSPATTASPAKVDSSGVIDLF [A2I] has a reported protein stability index of 2.03
